test: Pharmacokinetic evaluation in CD-1 mice (IV and PO); type: in vivo; settings: male, mouse, plasma, IV, 1 mg/kg
observed-property: half-life (h)
Respond with the bare value in h.

Report measured half-life; entry is CCc1nc2n(-c3nnc(C(F)F)s3)c3cc(S(=O)(=O)NC4(C)CC4)cc(N4C[C@H](C)N[C@@H](C)C4)c3n2n1 [Compound 065R] 2.2

Report measured half-life; entry is C[C@H]1CN(c2cc(S(=O)(=O)NC3(C)CC3)cc3c2n2nc(C(F)(F)F)nc2n3-c2nnc(C(F)F)s2)C[C@H](C)N1 [Compound 065W] 5.2
